Hello, the source for this data is patent US10168342B2, in case you need it.

- TARGET_OR_TEST_SYSTEM: AEA-DA lipid probe targets in Neuro2a cells (Mus musculus)
- Sequence (Q6PA06 whole entry): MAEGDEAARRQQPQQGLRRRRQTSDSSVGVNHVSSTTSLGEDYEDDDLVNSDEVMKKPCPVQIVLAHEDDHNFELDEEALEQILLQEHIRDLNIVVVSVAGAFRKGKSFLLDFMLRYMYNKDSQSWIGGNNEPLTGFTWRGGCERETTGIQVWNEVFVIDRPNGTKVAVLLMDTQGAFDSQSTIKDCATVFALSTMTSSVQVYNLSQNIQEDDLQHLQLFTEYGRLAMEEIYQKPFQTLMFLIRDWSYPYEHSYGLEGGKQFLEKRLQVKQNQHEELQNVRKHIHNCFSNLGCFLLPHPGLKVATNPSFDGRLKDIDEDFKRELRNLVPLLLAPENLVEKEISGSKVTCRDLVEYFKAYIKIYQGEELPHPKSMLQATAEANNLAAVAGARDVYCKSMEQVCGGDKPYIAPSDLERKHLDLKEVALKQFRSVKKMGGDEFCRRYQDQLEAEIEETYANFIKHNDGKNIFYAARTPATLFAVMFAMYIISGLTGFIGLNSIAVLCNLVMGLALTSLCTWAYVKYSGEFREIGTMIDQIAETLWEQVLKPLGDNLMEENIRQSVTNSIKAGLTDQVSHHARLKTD
- EXPERIMENTAL_PARAMETERS: competitor 25 μM
QUANTITY: SILAC ratio, Atl2
In your answer, state the number alone without any accompanying words.

Worked examples, 3 molecules total:
MOLECULE	SILAC ratio, Atl2
O=C(/C=C/c1cccnc1)NCCCCC1CCN(C(=O)c2ccccc2)CC1 [FK-866, reference compound]	1.1
CN1CCN(C(=O)c2c(-c3ccccc3)c3cc([N+](=O)[O-])ccc3n2C)CC1	1.3
C=CCN(C)CCCCCCOc1ccc(C(=O)c2ccc(Br)cc2)c(F)c1 [Ro 48-8071, reference compound]	1.2

Q. Quick check: SILAC ratio, Atl2 of CN1CCN(C(=O)c2[nH]c3ccc([N+](=O)[O-])cc3c2-c2ccccc2)CC1 ?
A. 1.4
